# System Name: Voltage-dependent L-type calcium channel subunit alpha-1C (Cavia porcellus)
# Sequence (O35505 whole entry): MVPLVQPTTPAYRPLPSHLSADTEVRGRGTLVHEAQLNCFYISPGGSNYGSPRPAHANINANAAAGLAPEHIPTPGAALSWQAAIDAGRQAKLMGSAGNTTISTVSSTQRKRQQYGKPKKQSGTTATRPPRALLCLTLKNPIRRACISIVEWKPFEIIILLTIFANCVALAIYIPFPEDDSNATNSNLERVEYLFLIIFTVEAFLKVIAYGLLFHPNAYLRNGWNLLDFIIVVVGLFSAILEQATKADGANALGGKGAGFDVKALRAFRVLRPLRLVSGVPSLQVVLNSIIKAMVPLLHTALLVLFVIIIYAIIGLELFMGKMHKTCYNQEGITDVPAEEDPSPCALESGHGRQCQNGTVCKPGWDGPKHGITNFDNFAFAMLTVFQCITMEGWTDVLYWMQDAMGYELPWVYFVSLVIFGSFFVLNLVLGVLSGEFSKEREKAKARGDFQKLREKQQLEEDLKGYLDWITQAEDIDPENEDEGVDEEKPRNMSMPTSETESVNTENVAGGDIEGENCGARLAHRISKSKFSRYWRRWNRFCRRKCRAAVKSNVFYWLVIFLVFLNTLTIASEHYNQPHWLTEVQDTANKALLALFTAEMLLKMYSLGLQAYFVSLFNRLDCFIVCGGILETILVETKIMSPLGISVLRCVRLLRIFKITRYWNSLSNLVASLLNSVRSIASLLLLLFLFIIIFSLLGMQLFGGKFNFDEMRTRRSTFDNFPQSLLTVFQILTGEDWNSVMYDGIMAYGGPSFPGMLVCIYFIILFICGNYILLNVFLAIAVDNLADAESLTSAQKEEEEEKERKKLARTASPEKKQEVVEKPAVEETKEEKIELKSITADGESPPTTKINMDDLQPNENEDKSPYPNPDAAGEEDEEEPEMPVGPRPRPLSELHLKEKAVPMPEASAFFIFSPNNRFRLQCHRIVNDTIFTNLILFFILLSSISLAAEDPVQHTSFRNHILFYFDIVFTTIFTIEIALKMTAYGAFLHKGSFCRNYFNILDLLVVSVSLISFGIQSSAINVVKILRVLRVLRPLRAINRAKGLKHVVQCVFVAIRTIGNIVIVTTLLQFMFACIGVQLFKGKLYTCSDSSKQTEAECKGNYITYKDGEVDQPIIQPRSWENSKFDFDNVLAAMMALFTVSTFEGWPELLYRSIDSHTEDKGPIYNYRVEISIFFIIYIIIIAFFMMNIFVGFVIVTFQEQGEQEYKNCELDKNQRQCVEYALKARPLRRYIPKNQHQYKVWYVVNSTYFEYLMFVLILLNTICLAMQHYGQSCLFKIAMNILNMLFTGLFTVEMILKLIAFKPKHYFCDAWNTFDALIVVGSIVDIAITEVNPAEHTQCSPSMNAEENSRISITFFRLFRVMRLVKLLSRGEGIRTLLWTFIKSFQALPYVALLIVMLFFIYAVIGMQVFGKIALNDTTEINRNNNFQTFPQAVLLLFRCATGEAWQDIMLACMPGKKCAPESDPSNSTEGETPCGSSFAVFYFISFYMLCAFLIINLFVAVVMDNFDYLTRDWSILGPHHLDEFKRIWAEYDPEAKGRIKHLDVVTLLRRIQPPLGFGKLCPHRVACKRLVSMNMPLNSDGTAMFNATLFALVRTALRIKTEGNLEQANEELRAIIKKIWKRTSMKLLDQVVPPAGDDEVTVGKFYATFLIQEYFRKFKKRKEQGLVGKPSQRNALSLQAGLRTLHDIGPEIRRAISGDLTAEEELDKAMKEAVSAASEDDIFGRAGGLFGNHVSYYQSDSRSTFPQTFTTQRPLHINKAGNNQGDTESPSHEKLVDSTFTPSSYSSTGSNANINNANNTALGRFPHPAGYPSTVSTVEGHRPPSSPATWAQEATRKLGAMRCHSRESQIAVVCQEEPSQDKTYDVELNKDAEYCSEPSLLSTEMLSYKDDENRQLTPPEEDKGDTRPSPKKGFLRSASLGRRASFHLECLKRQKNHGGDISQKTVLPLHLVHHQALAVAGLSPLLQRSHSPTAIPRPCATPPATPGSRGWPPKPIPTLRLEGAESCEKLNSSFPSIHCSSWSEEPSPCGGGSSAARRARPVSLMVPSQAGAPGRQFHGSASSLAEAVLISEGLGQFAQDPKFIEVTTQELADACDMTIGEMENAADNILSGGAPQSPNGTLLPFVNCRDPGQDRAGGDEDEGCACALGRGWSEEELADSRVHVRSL
# Experiment: Inhibition of calcium channel in Cavia porcellus (guinea pig) ileum assessed as inhibition of KCl-induced contraction
Result Type: IC50 (nM)

Molecule: CCOC(=O)C1=C(C)NC(C)=C(C(=O)OC)C1c1[nH]c(CC)nc1Cl (stereo not drawn)
Result Type: IC50
Readout Number: 2.02
//
Molecule: CCc1nc(Cl)c(C2C(C(=O)OC(C)C)=C(C)NC(C)=C2C(=O)OC(C)C)[nH]1
Result Type: IC50
Readout Number: 0.748
//
Molecule: CCc1nc(C2C(C(=O)OCCc3ccccc3)=C(C)NC(C)=C2C(=O)OCCc2ccccc2)c(Cl)[nH]1
Result Type: IC50
Readout Number: 0.0437
//
Molecule: CCCOC(=O)C1=C(C)NC(C)=C(C(=O)OC)C1c1[nH]c(CC)nc1Cl (stereo not drawn)
Result Type: IC50
Readout Number: 0.146
//
Molecule: CCOC(=O)C1=C(C)NC(C)=C(C(=O)OC(C)(C)C)C1c1[nH]c(CC)nc1Cl (stereo not drawn)
Result Type: IC50
Readout Number: 99.8
//
Molecule: CCOC(=O)C1=C(C)NC(C)=C(C(=O)OC(C)C)C1c1[nH]c(CC)nc1Cl (stereo not drawn)
Result Type: IC50
Readout Number: 0.564

1: CCc1nc(Cl)c(C2C(C(=O)OC)=C(C)NC(C)=C2C(=O)OC(C)(C)C)[nH]1 (stereo not drawn)
2: CCc1nc(Cl)c(C2C(C(=O)OC3CCCCC3)=C(C)NC(C)=C2C(=O)OC2CCCCC2)[nH]1
3: CCc1nc(C2C(C(=O)OCc3ccccc3)=C(C)NC(C)=C2C(=O)OCc2ccccc2)c(Cl)[nH]1
4: CCc1nc(Cl)c(C2C(C(=O)OCCCc3ccccc3)=C(C)NC(C)=C2C(=O)OCCCc2ccccc2)[nH]1
5: CCc1nc(Cl)c(C2C(C(=O)OC)=C(C)NC(C)=C2C(=O)OCc2ccccc2)[nH]1 (stereo not drawn)
Order the records, beginning with the lowest IC50 and ending with the highest. Answer format: the labels, ordered as requested.
4, 2, 3, 5, 1
(4: 0.0668 nM, 2: 0.132 nM, 3: 0.906 nM, 5: 1.75 nM, 1: 50.8 nM)

P: CCCOC(=O)C1=C(C)NC(C)=C(C(=O)OCCC)C1c1[nH]c(CC)nc1Cl
Q: CCc1nc(Cl)c(C2C(C(=O)OC3CCCC3)=C(C)NC(C)=C2C(=O)OC2CCCC2)[nH]1
Lowest IC50? choose P or Q Your answer should be the label attached to the chosen record.
P

A: CCOC(=O)C1=C(C)NC(C)=C(C(=O)OCC2CCCCC2)C1c1[nH]c(CC)nc1Cl (stereo not drawn)
B: CCc1nc(Cl)c(C2C(C(=O)OCC(C)C)=C(C)NC(C)=C2C(=O)OCC(C)C)[nH]1
// max by IC50 over [ A , B ] Your answer should be the label attached to the chosen record.
B

a: CCc1nc(Cl)c(C2C(C(=O)OC)=C(C)NC(C)=C2C(=O)OC)[nH]1
b: CCc1nc(C2C(C(=O)OC)=C(C)NC(C)=C2C(=O)OCCc2ccccc2)c(Cl)[nH]1 (stereo not drawn)
Lowest IC50? choose a or b Your answer should be the label attached to the chosen record.
b
(b: 0.0309 nM, a: 0.596 nM)

1: CCc1nc(Cl)c(C2C(C(=O)OC)=C(C)NC(C)=C2C(=O)OC(C)C)[nH]1 (stereo not drawn)
2: CCOC(=O)C1=C(C)NC(C)=C(C(=O)OCc2ccccc2)C1c1[nH]c(CC)nc1Cl (stereo not drawn)
3: CCOC(=O)C1=C(C)NC(C)=C(C(=O)OCC)C1c1[nH]c(CC)nc1Cl
Order the records, beginning with the lowest IC50 and ending with the highest. Answer format: the labels, ordered as requested.
3, 1, 2
(3: 0.158 nM, 1: 0.488 nM, 2: 2.66 nM)

a: CCCOC(=O)C1=C(C)NC(C)=C(C(=O)OCC)C1c1[nH]c(CC)nc1Cl (stereo not drawn)
b: CCc1nc(Cl)c(C2C(C(=O)OC(C)(C)C)=C(C)NC(C)=C2C(=O)OC(C)(C)C)[nH]1
Lowest IC50? choose a or b Your answer should be the label attached to the chosen record.
a
